# reported protein stability index; entries follow
- assayText: protein stability index of a GFP-peptide fusion (yeast GPS) (PSI 1-4); higher = more stable; sorted into four equal gates, so the index is relative within each strain
- runConditions: san1∆
Could you respond with only the numeric value?

Here's what some known entries look like.
# biopolymerSequence, protein stability index
rows = [
    ("ITKLLEINLSKIFQTTP [YCS4]", 2.43),
    ("TPKVVRSQDQENPAFLP [SEC65]", 2.16),
    ("NLVKEKEALQNNIFKEF [SMC1]", 2.99),
]

Quick one: protein stability index for FTIVSLVQLKKFSDLKF [YML103C/NUP188] ?
2.7

What does the data say about its protein stability index? Entry: GAGSAFGFSSSGTAATG [YOR098C/NUP1]
3.41

# lookup: protein stability index of TGVMIGIDLAYNMYDAY [PRP8]
2.82

Given SEISDGKLKRCSRCGSV [SIN4] , state its recorded protein stability index.
3.36

Any idea what its protein stability index is? The sequence is ELNEEKKRLMDIDDELN [SMC2]
2.69

Which value of protein stability index has been reported for SYANLPGTITHGMFSSA [FAS1] in the records?
2.16

So what's the measured protein stability index for this one? NVFGTLQRHSGISSTLV [YLR018C/POM34]
1.77

I have this sequence here, LDELQWKSPEWIQVFGL [MED6] , and I need its recorded protein stability index.
2.62

If you can, please state the reported protein stability index value of CTEAGLLALRERRMQVT [RPT2] .
2.33

Suppose we examine the sequence PLYARYINVNPQEETIT [ECM29] ; what protein stability index value has been reported?
2.9
